Measured kinase still bound, per cent of control, listed per entry.
# System: KIT (human), P10721 [D816V]
# Sequence (P10721 whole entry D816V, looked up): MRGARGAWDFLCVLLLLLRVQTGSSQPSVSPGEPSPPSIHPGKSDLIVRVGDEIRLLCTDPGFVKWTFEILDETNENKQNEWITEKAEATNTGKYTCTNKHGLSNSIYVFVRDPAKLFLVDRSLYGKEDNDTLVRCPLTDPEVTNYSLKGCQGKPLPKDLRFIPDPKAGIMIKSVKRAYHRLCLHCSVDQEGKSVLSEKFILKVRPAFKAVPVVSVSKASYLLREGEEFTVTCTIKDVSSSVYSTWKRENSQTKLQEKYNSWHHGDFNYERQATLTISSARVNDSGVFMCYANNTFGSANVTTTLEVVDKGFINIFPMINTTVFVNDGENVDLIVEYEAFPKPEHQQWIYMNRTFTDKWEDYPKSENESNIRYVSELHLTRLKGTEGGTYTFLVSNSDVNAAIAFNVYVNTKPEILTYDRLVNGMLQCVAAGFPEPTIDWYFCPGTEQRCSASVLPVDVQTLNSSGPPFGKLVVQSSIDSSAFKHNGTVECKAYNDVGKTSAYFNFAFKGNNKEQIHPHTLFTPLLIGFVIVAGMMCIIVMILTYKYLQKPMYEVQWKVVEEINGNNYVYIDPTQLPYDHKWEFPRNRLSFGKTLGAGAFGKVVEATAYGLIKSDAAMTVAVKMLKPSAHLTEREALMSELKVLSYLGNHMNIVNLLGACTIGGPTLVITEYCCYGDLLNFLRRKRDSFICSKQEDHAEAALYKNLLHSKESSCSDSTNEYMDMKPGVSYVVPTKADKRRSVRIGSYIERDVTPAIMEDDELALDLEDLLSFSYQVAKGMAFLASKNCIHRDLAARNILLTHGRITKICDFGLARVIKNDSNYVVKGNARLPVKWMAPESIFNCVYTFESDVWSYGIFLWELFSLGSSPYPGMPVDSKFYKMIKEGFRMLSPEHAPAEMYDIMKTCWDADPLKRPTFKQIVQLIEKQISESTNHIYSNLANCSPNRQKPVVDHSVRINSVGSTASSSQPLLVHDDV
# Test protocol: KINOMEscan competition binding
# Condition summary: compound 1.0 µM

Chem smiles: CN(C)C/C=C/C(=O)Nc1cccc(C(=O)Nc2ccc(Nc3nccc(/C(C#N)=C4\Nc5ccccc5S4)n3)cc2)c1
kinase still bound, per cent of control (%): 41
//
Chem smiles: Cc1cc(NC(=O)c2cccc(NC(=O)/C=C/CN(C)C)c2)ccc1Nc1nccc(-c2cccnc2)n1
kinase still bound, per cent of control (%): 54
//
Chem smiles: CN(C)C/C=C/C(=O)Nc1cccc(C(=O)Nc2ccc(Nc3nccc(-c4cccnc4)n3)cc2)c1
kinase still bound, per cent of control (%): 16
//
Chem smiles: CN(C)C/C=C/C(=O)Nc1cccc(C(=O)Nc2ccc(Nc3nccc(-c4c(-c5ccccc5)nn5ccccc45)n3)cc2)c1
kinase still bound, per cent of control (%): 33

* * *

# Test system: ABL1 (human), P00519 [E255K]
# Sequence (P00519 whole entry E255K, looked up): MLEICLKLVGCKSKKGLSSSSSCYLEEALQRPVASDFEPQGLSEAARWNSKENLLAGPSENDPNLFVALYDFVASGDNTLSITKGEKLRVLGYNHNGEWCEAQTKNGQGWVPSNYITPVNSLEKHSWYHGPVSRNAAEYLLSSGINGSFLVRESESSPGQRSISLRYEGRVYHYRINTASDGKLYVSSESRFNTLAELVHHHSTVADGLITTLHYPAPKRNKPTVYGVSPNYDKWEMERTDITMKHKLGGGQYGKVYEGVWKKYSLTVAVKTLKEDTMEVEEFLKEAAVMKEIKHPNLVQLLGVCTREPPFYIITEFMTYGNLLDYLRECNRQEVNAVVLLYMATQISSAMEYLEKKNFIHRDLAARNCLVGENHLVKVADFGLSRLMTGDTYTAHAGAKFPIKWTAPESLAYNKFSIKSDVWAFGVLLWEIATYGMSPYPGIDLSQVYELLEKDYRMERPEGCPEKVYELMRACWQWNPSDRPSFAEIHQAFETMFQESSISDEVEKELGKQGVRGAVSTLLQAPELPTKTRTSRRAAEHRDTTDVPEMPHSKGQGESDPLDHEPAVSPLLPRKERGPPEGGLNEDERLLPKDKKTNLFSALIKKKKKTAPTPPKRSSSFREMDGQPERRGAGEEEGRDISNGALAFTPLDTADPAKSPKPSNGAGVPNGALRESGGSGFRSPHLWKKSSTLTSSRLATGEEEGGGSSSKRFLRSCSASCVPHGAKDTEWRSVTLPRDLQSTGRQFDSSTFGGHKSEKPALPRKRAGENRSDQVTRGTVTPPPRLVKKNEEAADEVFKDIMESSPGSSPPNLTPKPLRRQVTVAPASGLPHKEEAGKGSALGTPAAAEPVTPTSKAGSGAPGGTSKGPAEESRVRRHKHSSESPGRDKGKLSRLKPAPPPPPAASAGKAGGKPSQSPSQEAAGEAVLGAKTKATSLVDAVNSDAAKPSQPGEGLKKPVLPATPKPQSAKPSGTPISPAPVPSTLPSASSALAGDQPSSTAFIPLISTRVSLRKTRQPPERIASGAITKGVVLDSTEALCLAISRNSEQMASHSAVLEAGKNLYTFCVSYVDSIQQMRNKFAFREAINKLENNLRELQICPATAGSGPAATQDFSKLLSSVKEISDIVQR
# Test protocol: KINOMEscan competition binding
# Condition summary: compound 1.0 µM
Assay metric: kinase still bound, per cent of control (%)

Chem smiles: Cc1cc(NC(=O)c2cccc(NC(=O)/C=C/CN(C)C)c2)ccc1Nc1nccc(-c2cccnc2)n1
System tested: ABL1 (human), P00519 [E255K]
Assay result: 100

Chem smiles: CN(C)C/C=C/C(=O)Nc1cccc(C(=O)Nc2ccc(Nc3nccc(/C(C#N)=C4\Nc5ccccc5S4)n3)cc2)c1
System tested: ABL1 (human), P00519 [E255K]
Assay result: 100

Chem smiles: CN(C)C/C=C/C(=O)Nc1cccc(C(=O)Nc2ccc(Nc3nccc(-c4c(-c5ccccc5)nn5ccccc45)n3)cc2)c1
System tested: ABL1 (human), P00519 [E255K]
Assay result: 12

Chem smiles: CN(C)C/C=C/C(=O)Nc1cccc(C(=O)Nc2ccc(Nc3nccc(-c4cccnc4)n3)cc2)c1
System tested: ABL1 (human), P00519 [E255K]
Assay result: 43

* * *

# System tested: UniProt:P08631
# Test protocol: KINOMEscan competition binding
# Condition summary: compound 1.0 µM
Measured kinase still bound, per cent of control, listed per entry.

Chem smiles: Cc1cc(NC(=O)c2cccc(NC(=O)/C=C/CN(C)C)c2)ccc1Nc1nccc(-c2cccnc2)n1
Measure unit: %
kinase still bound, per cent of control: 100

Chem smiles: CN(C)C/C=C/C(=O)Nc1cccc(C(=O)Nc2ccc(Nc3nccc(/C(C#N)=C4\Nc5ccccc5S4)n3)cc2)c1
Measure unit: %
kinase still bound, per cent of control: 100

Chem smiles: CN(C)C/C=C/C(=O)Nc1cccc(C(=O)Nc2ccc(Nc3nccc(-c4c(-c5ccccc5)nn5ccccc45)n3)cc2)c1
Measure unit: %
kinase still bound, per cent of control: 23

Chem smiles: CN(C)C/C=C/C(=O)Nc1cccc(C(=O)Nc2ccc(Nc3nccc(-c4cccnc4)n3)cc2)c1
Measure unit: %
kinase still bound, per cent of control: 100

* * *

# System tested: UniProtKB P80192
# Sequence (P80192 whole entry, looked up): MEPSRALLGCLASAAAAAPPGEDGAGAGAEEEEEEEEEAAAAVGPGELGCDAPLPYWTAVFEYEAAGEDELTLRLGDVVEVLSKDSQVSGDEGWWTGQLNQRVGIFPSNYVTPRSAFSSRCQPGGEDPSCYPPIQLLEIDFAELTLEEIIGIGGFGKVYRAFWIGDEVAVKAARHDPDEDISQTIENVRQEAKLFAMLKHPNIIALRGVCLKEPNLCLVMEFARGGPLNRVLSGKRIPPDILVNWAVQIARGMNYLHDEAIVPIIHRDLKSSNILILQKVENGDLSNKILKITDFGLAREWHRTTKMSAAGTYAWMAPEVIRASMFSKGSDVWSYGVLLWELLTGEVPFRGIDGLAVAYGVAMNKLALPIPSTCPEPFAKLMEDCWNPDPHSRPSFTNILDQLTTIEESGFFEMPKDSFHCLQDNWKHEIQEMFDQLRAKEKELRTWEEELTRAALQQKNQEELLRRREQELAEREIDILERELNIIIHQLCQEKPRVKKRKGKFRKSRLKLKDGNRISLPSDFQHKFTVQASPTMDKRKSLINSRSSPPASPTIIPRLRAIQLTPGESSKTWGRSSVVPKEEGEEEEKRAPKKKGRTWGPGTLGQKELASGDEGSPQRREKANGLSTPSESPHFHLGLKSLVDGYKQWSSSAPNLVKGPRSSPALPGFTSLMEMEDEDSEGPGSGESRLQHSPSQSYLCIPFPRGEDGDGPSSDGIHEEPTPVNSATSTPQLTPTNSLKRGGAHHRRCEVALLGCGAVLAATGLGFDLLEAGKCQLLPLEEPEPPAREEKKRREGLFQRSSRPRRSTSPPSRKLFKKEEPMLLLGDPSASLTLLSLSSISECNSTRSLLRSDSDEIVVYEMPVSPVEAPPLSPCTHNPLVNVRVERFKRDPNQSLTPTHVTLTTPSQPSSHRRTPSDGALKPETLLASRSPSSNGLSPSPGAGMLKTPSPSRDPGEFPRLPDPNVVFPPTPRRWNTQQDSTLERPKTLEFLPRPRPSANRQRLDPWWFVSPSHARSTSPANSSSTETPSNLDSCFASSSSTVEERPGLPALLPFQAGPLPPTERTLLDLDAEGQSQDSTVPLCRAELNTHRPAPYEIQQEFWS
# Test protocol: KINOMEscan competition binding
# Condition summary: compound 1.0 µM

Chem smiles: CN(C)C/C=C/C(=O)Nc1cccc(C(=O)Nc2ccc(Nc3nccc(/C(C#N)=C4\Nc5ccccc5S4)n3)cc2)c1
kinase still bound, per cent of control / %: 100

Chem smiles: Cc1cc(NC(=O)c2cccc(NC(=O)/C=C/CN(C)C)c2)ccc1Nc1nccc(-c2cccnc2)n1
kinase still bound, per cent of control / %: 100

Chem smiles: CN(C)C/C=C/C(=O)Nc1cccc(C(=O)Nc2ccc(Nc3nccc(-c4c(-c5ccccc5)nn5ccccc45)n3)cc2)c1
kinase still bound, per cent of control / %: 59

Chem smiles: CN(C)C/C=C/C(=O)Nc1cccc(C(=O)Nc2ccc(Nc3nccc(-c4cccnc4)n3)cc2)c1
kinase still bound, per cent of control / %: 80

* * *

# System tested: NEK3 (human) (UniProt P51956)
# Sequence (P51956 whole entry, looked up): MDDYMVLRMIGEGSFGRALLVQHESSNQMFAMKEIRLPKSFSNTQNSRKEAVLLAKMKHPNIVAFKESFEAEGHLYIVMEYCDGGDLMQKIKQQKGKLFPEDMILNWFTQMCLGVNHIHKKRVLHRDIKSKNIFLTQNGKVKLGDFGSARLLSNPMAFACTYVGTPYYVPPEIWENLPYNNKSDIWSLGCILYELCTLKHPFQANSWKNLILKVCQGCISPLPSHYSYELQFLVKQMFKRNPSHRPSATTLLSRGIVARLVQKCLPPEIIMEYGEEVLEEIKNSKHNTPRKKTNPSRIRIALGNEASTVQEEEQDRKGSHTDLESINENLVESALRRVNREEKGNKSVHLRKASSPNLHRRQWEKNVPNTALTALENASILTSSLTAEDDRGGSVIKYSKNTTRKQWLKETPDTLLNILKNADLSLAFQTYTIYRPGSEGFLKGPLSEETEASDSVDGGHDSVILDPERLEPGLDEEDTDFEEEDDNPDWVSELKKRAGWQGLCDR
# Test protocol: KINOMEscan competition binding
# Condition summary: compound 1.0 µM
Assay metric: kinase still bound, per cent of control

Chem smiles: CN(C)C/C=C/C(=O)Nc1cccc(C(=O)Nc2ccc(Nc3nccc(-c4c(-c5ccccc5)nn5ccccc45)n3)cc2)c1
Assay metric: kinase still bound, per cent of control
Assay result: 99%
//
Chem smiles: CN(C)C/C=C/C(=O)Nc1cccc(C(=O)Nc2ccc(Nc3nccc(/C(C#N)=C4\Nc5ccccc5S4)n3)cc2)c1
Assay metric: kinase still bound, per cent of control
Assay result: 100%
//
Chem smiles: Cc1cc(NC(=O)c2cccc(NC(=O)/C=C/CN(C)C)c2)ccc1Nc1nccc(-c2cccnc2)n1
Assay metric: kinase still bound, per cent of control
Assay result: 73%
//
Chem smiles: CN(C)C/C=C/C(=O)Nc1cccc(C(=O)Nc2ccc(Nc3nccc(-c4cccnc4)n3)cc2)c1
Assay metric: kinase still bound, per cent of control
Assay result: 6.8%

* * *

# System tested: MET (human) (UniProt P08581)
# Test protocol: KINOMEscan competition binding
# Condition summary: compound 1.0 µM
Assay metric: kinase still bound, per cent of control (%)

Chem smiles: CN(C)C/C=C/C(=O)Nc1cccc(C(=O)Nc2ccc(Nc3nccc(-c4cccnc4)n3)cc2)c1
System tested: MET (human) (UniProt P08581)
Assay metric: kinase still bound, per cent of control
Assay result: 100

Chem smiles: Cc1cc(NC(=O)c2cccc(NC(=O)/C=C/CN(C)C)c2)ccc1Nc1nccc(-c2cccnc2)n1
System tested: MET (human) (UniProt P08581)
Assay metric: kinase still bound, per cent of control
Assay result: 100

Chem smiles: CN(C)C/C=C/C(=O)Nc1cccc(C(=O)Nc2ccc(Nc3nccc(-c4c(-c5ccccc5)nn5ccccc45)n3)cc2)c1
System tested: MET (human) (UniProt P08581)
Assay metric: kinase still bound, per cent of control
Assay result: 55

Chem smiles: CN(C)C/C=C/C(=O)Nc1cccc(C(=O)Nc2ccc(Nc3nccc(/C(C#N)=C4\Nc5ccccc5S4)n3)cc2)c1
System tested: MET (human) (UniProt P08581)
Assay metric: kinase still bound, per cent of control
Assay result: 92

* * *

Measured kinase still bound, per cent of control, listed per entry.
# Tested on: MET (human), P08581 [M1250T]
# Test protocol: KINOMEscan competition binding
# Condition summary: compound 1.0 µM

Chem smiles: CN(C)C/C=C/C(=O)Nc1cccc(C(=O)Nc2ccc(Nc3nccc(/C(C#N)=C4\Nc5ccccc5S4)n3)cc2)c1
System tested: MET (human), P08581 [M1250T]
kinase still bound, per cent of control: 79%
//
Chem smiles: CN(C)C/C=C/C(=O)Nc1cccc(C(=O)Nc2ccc(Nc3nccc(-c4c(-c5ccccc5)nn5ccccc45)n3)cc2)c1
System tested: MET (human), P08581 [M1250T]
kinase still bound, per cent of control: 70%
//
Chem smiles: Cc1cc(NC(=O)c2cccc(NC(=O)/C=C/CN(C)C)c2)ccc1Nc1nccc(-c2cccnc2)n1
System tested: MET (human), P08581 [M1250T]
kinase still bound, per cent of control: 6.2%
//
Chem smiles: CN(C)C/C=C/C(=O)Nc1cccc(C(=O)Nc2ccc(Nc3nccc(-c4cccnc4)n3)cc2)c1
System tested: MET (human), P08581 [M1250T]
kinase still bound, per cent of control: 100%

* * *

Measured kinase still bound, per cent of control, listed per entry.
# System tested: PRKG1 (human)
# Test protocol: KINOMEscan competition binding
# Condition summary: compound 1.0 µM

Chem smiles: CN(C)C/C=C/C(=O)Nc1cccc(C(=O)Nc2ccc(Nc3nccc(-c4c(-c5ccccc5)nn5ccccc45)n3)cc2)c1
Measure unit: %
kinase still bound, per cent of control: 90
--
Chem smiles: Cc1cc(NC(=O)c2cccc(NC(=O)/C=C/CN(C)C)c2)ccc1Nc1nccc(-c2cccnc2)n1
Measure unit: %
kinase still bound, per cent of control: 72
--
Chem smiles: CN(C)C/C=C/C(=O)Nc1cccc(C(=O)Nc2ccc(Nc3nccc(-c4cccnc4)n3)cc2)c1
Measure unit: %
kinase still bound, per cent of control: 100
--
Chem smiles: CN(C)C/C=C/C(=O)Nc1cccc(C(=O)Nc2ccc(Nc3nccc(/C(C#N)=C4\Nc5ccccc5S4)n3)cc2)c1
Measure unit: %
kinase still bound, per cent of control: 100

* * *

# System tested: CSNK1G3 (human) (UniProt Q9Y6M4)
# Sequence (Q9Y6M4 whole entry, looked up): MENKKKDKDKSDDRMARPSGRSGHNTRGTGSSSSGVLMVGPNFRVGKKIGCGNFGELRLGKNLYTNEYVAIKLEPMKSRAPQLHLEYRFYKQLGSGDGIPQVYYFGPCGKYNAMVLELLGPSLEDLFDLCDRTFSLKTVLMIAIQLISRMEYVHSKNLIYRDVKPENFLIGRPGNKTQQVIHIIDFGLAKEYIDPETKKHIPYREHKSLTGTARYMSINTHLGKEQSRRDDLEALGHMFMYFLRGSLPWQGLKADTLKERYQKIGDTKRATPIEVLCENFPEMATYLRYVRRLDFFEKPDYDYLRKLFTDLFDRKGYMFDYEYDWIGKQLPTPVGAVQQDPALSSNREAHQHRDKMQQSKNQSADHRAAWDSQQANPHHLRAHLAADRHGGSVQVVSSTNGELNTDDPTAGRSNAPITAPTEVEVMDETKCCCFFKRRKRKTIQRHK
# Test protocol: KINOMEscan competition binding
# Condition summary: compound 1.0 µM
Assay metric: kinase still bound, per cent of control (%)

Chem smiles: CN(C)C/C=C/C(=O)Nc1cccc(C(=O)Nc2ccc(Nc3nccc(/C(C#N)=C4\Nc5ccccc5S4)n3)cc2)c1
Measure unit: %
Assay result: 37
//
Chem smiles: Cc1cc(NC(=O)c2cccc(NC(=O)/C=C/CN(C)C)c2)ccc1Nc1nccc(-c2cccnc2)n1
Measure unit: %
Assay result: 100
//
Chem smiles: CN(C)C/C=C/C(=O)Nc1cccc(C(=O)Nc2ccc(Nc3nccc(-c4cccnc4)n3)cc2)c1
Measure unit: %
Assay result: 66
//
Chem smiles: CN(C)C/C=C/C(=O)Nc1cccc(C(=O)Nc2ccc(Nc3nccc(-c4c(-c5ccccc5)nn5ccccc45)n3)cc2)c1
Measure unit: %
Assay result: 1.2

* * *

# System tested: AKT1 (human) (UniProt P31749)
# Sequence (P31749 whole entry, looked up): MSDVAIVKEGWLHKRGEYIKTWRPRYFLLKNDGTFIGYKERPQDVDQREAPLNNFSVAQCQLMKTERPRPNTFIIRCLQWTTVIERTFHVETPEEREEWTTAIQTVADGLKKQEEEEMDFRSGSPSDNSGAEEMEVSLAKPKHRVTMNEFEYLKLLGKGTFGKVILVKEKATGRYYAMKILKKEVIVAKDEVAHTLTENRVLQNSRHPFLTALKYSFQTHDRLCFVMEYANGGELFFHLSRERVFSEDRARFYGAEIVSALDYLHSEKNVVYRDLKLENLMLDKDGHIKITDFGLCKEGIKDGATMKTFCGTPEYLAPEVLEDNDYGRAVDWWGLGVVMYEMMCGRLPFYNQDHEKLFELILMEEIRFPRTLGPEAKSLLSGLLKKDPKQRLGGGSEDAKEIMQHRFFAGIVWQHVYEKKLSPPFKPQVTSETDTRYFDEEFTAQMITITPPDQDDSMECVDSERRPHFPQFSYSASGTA
# Test protocol: KINOMEscan competition binding
# Condition summary: compound 1.0 µM
Measured kinase still bound, per cent of control, listed per entry.
Assay metric: kinase still bound, per cent of control (%)

Chem smiles: CN(C)C/C=C/C(=O)Nc1cccc(C(=O)Nc2ccc(Nc3nccc(/C(C#N)=C4\Nc5ccccc5S4)n3)cc2)c1
System tested: AKT1 (human) (UniProt P31749)
Assay result: 6.6
//
Chem smiles: CN(C)C/C=C/C(=O)Nc1cccc(C(=O)Nc2ccc(Nc3nccc(-c4c(-c5ccccc5)nn5ccccc45)n3)cc2)c1
System tested: AKT1 (human) (UniProt P31749)
Assay result: 100
//
Chem smiles: Cc1cc(NC(=O)c2cccc(NC(=O)/C=C/CN(C)C)c2)ccc1Nc1nccc(-c2cccnc2)n1
System tested: AKT1 (human) (UniProt P31749)
Assay result: 100
//
Chem smiles: CN(C)C/C=C/C(=O)Nc1cccc(C(=O)Nc2ccc(Nc3nccc(-c4cccnc4)n3)cc2)c1
System tested: AKT1 (human) (UniProt P31749)
Assay result: 87
